// reported Response per item
molecular target: coca-5HT3 (α7(L141G,G175K,Y210F,Y217F)–5HT3) (Homo sapiens, UniProt P36544, G175K/L141G/Y210F/Y217F); assay: Membrane potential assay, coca-5HT3 in HEK293; conditions: coca-5HT3; conc 37.037 uM; ED Fig 3a
Sequence (P36544 23-224 L141G/G175K/Y210F/Y217F): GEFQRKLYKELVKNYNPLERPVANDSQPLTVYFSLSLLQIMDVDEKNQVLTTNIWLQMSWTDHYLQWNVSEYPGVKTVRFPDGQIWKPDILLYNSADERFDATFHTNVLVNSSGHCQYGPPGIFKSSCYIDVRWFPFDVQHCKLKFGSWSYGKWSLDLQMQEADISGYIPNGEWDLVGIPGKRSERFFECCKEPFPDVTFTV
Sequence (P23979 242-489, further chain): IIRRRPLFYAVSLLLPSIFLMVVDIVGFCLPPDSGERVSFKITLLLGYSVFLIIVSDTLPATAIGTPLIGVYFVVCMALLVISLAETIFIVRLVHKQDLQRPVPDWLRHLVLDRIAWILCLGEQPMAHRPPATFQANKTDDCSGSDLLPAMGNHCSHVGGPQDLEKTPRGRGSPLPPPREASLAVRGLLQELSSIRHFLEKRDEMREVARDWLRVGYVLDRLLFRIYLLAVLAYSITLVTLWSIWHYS

COMPOUND: COC(=O)[C@H]1[C@@H](OC(=O)c2ccccc2)C[C@@H]2CC[C@H]1N2C
TEST_RESULT: 0.885
--
COMPOUND: NCC(=O)O
TEST_RESULT: 0.042
--
COMPOUND: NCCc1c[nH]cn1
TEST_RESULT: 0.028
--
COMPOUND: NCCc1ccc(O)c(O)c1
TEST_RESULT: 0.017
--
COMPOUND: NC[C@H](O)c1ccc(O)c(O)c1 [Norepinephrine]
TEST_RESULT: 0.059

Query: Reported Response, compound N[C@@H](CCC(=O)O)C(=O)O [Glutmate] : ____
Reply: 0.041

Query: How about this compound: CCCCC/C=C\C/C=C\C/C=C\C/C=C\CCCC(=O)NCCO [Anandamide]
Reply: 0.011

Query: How about this compound: "NCCCC(=O)O"
Reply: 0.055

Query: How about this compound: "Nc1ncnc2c1ncn2[C@@H]1O[C@H](CO)[C@@H](O)[C@H]1O"
Reply: 0.053

Query: How about this compound: CNC[C@H](O)c1ccc(O)c(O)c1 [Epinephrine]
Reply: 0.029

Query: How about this compound: "N[C@H](CO)C(=O)O"
Reply: 0.062

Query: How about this compound: "NCCc1c[nH]c2ccc(O)cc12"
Reply: 0.082

Query: How about this compound: N[C@@H](CC(=O)O)C(=O)O [Aspartate]
Reply: 0.074

###

target: α7–5HT3 mutant chimeric channels (Homo sapiens, UniProt P36544, L141P); experiment: cell-based; format: cell-based, human α7 nAChR LBD, mouse 5HT3 IPD; settings: read-out: EC50 at α75HT3 L141P, Avg; sheet 1d; Avg
pEC50: −log10 of the molar value.
ENDPOINT: pEC50

Query: Reported pEC50, molecule "COC(=O)[C@H]1[C@@H](OC(=O)c2ccccc2)C[C@@H]2CC[C@H]1N2C" : ____
Reply: < 4.52

###

target: α7–GlyR mutant chimeric channels (Homo sapiens, UniProt P36544, Q79G); assay: Membrane potential assay screen, mutant α7–GlyR chimeric channels; type: cell-based; details: EC50 at α7-GlyR Q79G, sheet 1d; single determinations
Sequence (P36544 23-230 Q79G): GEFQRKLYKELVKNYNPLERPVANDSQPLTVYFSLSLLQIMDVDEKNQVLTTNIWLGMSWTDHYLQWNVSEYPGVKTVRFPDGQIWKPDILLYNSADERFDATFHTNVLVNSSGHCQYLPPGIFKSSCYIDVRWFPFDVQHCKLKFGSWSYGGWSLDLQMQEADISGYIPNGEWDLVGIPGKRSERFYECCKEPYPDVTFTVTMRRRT
Sequence (P23415 248-457 partner): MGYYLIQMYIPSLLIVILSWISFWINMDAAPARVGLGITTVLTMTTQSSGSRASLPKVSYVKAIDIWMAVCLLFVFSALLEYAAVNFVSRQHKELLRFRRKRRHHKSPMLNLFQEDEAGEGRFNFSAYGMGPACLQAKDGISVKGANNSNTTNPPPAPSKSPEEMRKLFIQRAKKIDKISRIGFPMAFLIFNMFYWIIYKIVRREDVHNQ
ENDPOINT: EC50

Query: Reported EC50, molecule "COC(=O)[C@H]1[C@@H](OC(=O)c2ccccc2)C[C@@H]2CC[C@H]1N2C" : ____
Reply: > 30 µM

###

biological target: α7–5HT3 mutant chimeric channels (Homo sapiens, UniProt P36544, Q139Y); assay: cell-based; type: cell-based, human α7 nAChR LBD, mouse 5HT3 IPD
ENDPOINT: EC50

Query: Reported EC50, molecule COC(=O)[C@H]1[C@@H](OC(=O)c2ccccc2)C[C@@H]2CC[C@H]1N2C [cocaine] : ____
Reply: > 30 µM

###

target: α7–GlyR mutant chimeric channels (Homo sapiens, UniProt P36544, Q79S); test: Membrane potential assay screen, mutant α7–GlyR chimeric channels; format: cell-based; details: EC50 at α7-GlyR Q79S, sheet 1d; single determinations
Sequence (P36544 23-230 Q79S, one chain of several): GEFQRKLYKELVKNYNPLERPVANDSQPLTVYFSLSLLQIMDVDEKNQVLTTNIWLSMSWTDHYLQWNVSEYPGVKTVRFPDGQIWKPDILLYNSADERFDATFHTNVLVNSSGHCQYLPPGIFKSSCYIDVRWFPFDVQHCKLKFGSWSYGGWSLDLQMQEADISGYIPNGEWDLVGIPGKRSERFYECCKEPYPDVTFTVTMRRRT
ENDPOINT: EC50

Query: Request body: readout EC50, system α7–GlyR mutant chimeric channels (Homo sapiens, UniProt P36544, Q79S), query "COC(=O)[C@H]1[C@@H](OC(=O)c2ccccc2)C[C@@H]2CC[C@H]1N2C" . Return the value.
Reply: > 30 µM
